# Test summary: HEp-2 cell cytotoxicity, dose response, cytotoxicity control for RSV inhibitor project, HTS (AID 2410)
# Type: functional
# Assay context: human respiratory syncytial virus
Activity calls are given as the source filed them. No rule for the calls is given here.
Property name: CC50

• CC(=O)O/N=C/c1c(NCc2ccccc2)nc2c(C)cccn2c1=O = 31.1 µM (active)
• CN1CCCC1CCNc1ccc2sc3ccccc3c(=O)c2c1 (stereo unspecified) = 11.5 µM (active)
• C=CCn1c(S)nnc1-c1cc2cccc(OC)c2o1 = 21.4 µM (active)
• CC(NCC(O)COc1ccc2ccccc2c1)c1ccccc1 (stereo unspecified) = 24.1 µM (active)
• COc1ccc(-c2ccc3c(c2)S(=O)(=O)c2cccc(C(=O)NCCOc4ccccc4)c2C3=O)cc1OC = 46.1 µM (active)
• NC(=S)N=Nc1c(O)[nH]c2cc(F)c(F)cc12 = 40 µM (active)
